Target: AEK1 (Trypanosoma brucei, UniProt Q582V7)
Construct: gene Tb03.48O8.470
Sequence (Q582V7 entry or part of it): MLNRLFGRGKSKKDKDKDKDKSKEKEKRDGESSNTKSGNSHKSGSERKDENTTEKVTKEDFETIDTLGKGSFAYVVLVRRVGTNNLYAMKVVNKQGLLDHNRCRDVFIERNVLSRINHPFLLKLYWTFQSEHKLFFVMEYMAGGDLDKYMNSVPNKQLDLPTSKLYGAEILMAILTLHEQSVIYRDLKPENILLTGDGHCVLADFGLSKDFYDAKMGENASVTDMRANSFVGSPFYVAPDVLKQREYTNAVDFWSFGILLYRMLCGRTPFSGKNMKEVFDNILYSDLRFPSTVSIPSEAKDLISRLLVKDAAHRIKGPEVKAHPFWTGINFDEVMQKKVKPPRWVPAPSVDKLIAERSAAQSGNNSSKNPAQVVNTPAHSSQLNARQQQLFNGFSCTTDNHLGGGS
Assay: TR-FRET displacement of probe SCP-2
Assay type: binding
Conditions: read-out: % control^a
Labelling field: enter rule met if recorded probe binding remaining (% of control) at 1 µM is less than 40%. Enter rule not met if it equals or exceeds that cut-off.

Data request: Dear colleague, could you confirm whether probe binding remaining (% of control) at 1 µM of Cn1cc(-c2[nH]c3cc(NC(=O)[C@H](N)C4CCCCC4)cc4c3c2C=NNC4=O)cn1 [PF-477736] falls below 40%? Thanks.
Data returned: rule met

Data request: Threshold test, probe binding remaining (% of control) at 1 µM < 40%: COc1cc2c(Oc3ccc4[nH]c(C)cc4c3F)ncnc2cc1OCCCN1CCCC1 [Cediranib (AZD2171)]
Data returned: rule met

Data request: Does Cc1nc(Nc2[nH]nc3c2CN(C(=O)N[C@H](CN(C)C)c2ccccc2)C3(C)C)c2sccc2n1 [PF-3758309] have probe binding remaining (% of control) at 1 µM strictly under 40%?
Data returned: rule met

Data request: Input CCS(=O)(=O)c1cccc(-c2cc(C(=O)NC3CCN(C)CC3)c(C)c3[nH]c4ncc(C)cc4c23)c1 [TAK-901] ; condition: probe binding remaining (% of control) at 1 µM strictly below 40%. Does it hold?
Data returned: rule met

Data request: Record Cc1c[nH]c2nc(Nc3ccc(N4CCN(C)CC4)c(F)c3)nc(-c3cccc(CC#N)c3)c12 [SGI-7079] : is its probe binding remaining (% of control) at 1 µM strictly below 40%?
Data returned: rule not met

Cited source for all entries: paper PMC10720658
